Origin of values: ChEMBL document CHEMBL3046342

Test system: Streptococcus pyogenes
Test: Antibacterial activity against Streptococcus pyogenes ATCC 12384 assessed as growth inhibition after 18 hr by microbroth dilution method
Format: functional
Details: ATCC 12384, 18 h
Assay Metric: MIC (µg/mL)

[[record]]
compound = "CC1(C)S[C@@H]2[C@H](NC(=O)[C@H](N)c3ccc(O)cc3)C(=O)N2[C@H]1C(=O)O"
assay_metric = "MIC"
numeric_result = 32

[[record]]
compound = "CC(=O)O[C@H]1CC[C@@]2(C)C(C1)/C(=N/N=C1\\SCC(=O)N1C1CCCCC1)C[C@H]1[C@@H]3CC[C@H]([C@H](C)CCCC(C)C)[C@@]3(C)CC[C@@H]12 (some centres undefined)"
assay_metric = "MIC"
numeric_result = 64

[[record]]
compound = "CC(C)CCC[C@@H](C)[C@H]1CC[C@H]2[C@@H]3C/C(=N\\N=C4/SCC(=O)N4C4CCCCC4)C4CCCC[C@]4(C)[C@H]3CC[C@]12C (some centres undefined)"
assay_metric = "MIC"
numeric_result = 128

[[record]]
compound = "CC(C)CCC[C@@H](C)[C@H]1CC[C@H]2[C@@H]3C/C(=N\\N=C4/SCC(=O)N4C4CCCCC4)C4C[C@@H](Cl)CC[C@]4(C)[C@H]3CC[C@]12C (some centres undefined)"
assay_metric = "MIC"
numeric_result = 32

